- experimentalTarget: AgOAR45B (Anopheles gambiae)
- Sequence (F5HJT6 entry or part of it): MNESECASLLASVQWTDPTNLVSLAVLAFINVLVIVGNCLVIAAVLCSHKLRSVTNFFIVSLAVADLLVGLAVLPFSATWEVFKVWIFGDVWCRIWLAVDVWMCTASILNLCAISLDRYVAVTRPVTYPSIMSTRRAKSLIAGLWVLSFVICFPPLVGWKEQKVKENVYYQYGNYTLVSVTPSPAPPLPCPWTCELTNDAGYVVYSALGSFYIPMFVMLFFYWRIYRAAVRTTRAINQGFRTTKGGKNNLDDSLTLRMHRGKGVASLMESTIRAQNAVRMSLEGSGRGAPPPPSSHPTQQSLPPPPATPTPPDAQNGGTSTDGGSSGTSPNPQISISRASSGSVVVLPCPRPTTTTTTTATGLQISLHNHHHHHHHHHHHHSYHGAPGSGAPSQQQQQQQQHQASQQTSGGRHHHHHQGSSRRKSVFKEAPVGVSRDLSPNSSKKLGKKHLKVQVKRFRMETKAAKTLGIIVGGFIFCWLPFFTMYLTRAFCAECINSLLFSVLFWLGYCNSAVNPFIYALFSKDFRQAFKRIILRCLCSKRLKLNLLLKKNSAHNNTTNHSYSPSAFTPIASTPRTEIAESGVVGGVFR

compound: NCC(O)c1ccc(O)cc1 (racemic)
experimentalTarget: AgOAR45B (Anopheles gambiae)
resultUnits: µM
Ki: 7.7

* * *

Recorded EC50 for the following compounds
- experimentalTarget: AgOAR45A (Anopheles gambiae, UniProt Q7PRZ8, DEL426-427)
- Sequence (Q7PRZ8 entry or part of it DEL426-427): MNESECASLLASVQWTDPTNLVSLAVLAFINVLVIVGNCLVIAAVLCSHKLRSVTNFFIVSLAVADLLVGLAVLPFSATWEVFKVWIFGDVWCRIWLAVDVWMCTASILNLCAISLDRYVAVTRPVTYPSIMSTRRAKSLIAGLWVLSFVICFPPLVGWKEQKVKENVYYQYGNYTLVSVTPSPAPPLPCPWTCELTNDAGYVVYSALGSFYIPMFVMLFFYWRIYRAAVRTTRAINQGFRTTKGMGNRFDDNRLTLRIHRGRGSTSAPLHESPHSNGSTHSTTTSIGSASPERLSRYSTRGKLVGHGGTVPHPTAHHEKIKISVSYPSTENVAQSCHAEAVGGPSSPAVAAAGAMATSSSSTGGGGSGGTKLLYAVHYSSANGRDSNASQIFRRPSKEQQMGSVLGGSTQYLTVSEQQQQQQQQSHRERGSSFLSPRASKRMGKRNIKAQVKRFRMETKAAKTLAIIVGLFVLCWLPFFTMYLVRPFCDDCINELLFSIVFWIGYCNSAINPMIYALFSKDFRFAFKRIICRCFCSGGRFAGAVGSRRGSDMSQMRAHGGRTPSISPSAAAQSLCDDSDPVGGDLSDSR
- procedureDetails: cell-based
attributeMeasured: EC50 (nM)

compound: Clc1cccc(Cl)c1N=C1NCCN1 [Clonidine, clonidine]
attributeMeasured: EC50
resultUnits: nM
prefixOperator: =
observed: 2
//
compound: Cc1ccc(N(CC2=NCCN2)c2cccc(O)c2)cc1 [Phentolamine, phentolamine]
attributeMeasured: EC50
resultUnits: nM
prefixOperator: =
observed: 10
//
compound: NCCc1ccc(O)c(O)c1 [Dopamine, dopamine]
attributeMeasured: EC50
resultUnits: nM
prefixOperator: >
observed: 50000
//
compound: NCCc1ccc(O)cc1 [Tyramine, tyramine]
attributeMeasured: EC50
resultUnits: nM
prefixOperator: =
observed: 4600
//
compound: NCC(O)c1ccc(O)cc1 (racemic) [Octopamine, DL-octopamine]
attributeMeasured: EC50
resultUnits: nM
prefixOperator: =
observed: 53
//
compound: c1ccc2c(CC3=NCCN3)cccc2c1 [Naphazoline, naphazoline]
attributeMeasured: EC50
resultUnits: nM
prefixOperator: =
observed: 2.2
//
compound: c1ccc(CC2=NCCN2)cc1 [Tolazoline, tolazoline]
attributeMeasured: EC50
resultUnits: nM
prefixOperator: =
observed: 280
//
compound: NCCc1c[nH]c2ccc(O)cc12 [Serotonin, serotonin]
attributeMeasured: EC50
resultUnits: nM
prefixOperator: >
observed: 50000
